Each recorded value in this set is attributed to patent US7008927B2.

- experimental details: In vivo absorption after intranasal administration to rats (plasma concentration, two-antibody competition method)
- assay setup: Crj:CD (SD), rat, inhaled or intranasal, male rats, intranasal 0.1 mg/kg, 0.1 w/v % in aqueous 0.005 w/v % benzalkonium chloride, 0.1 ml/kg
Where a SMILES comes first, the peptide text is derived from it. [ ]: non-standard residue; d: D form. d2Nal = N[C@H](Cc1ccc2ccccc2c1)C(=O)O
measurement kind: Tmax (min)

INSERT INTO assay_data (compound, reported) VALUES
  ('C[C@H](NC(=O)[C@@H](Cc1ccc2ccccc2c1)NC(=O)[C@@H](C)N)C(=O)N[C@@H](Cc1c[nH]c2ccccc12)C(=O)N[C@H](Cc1ccccc1)C(=O)N[C@@H](CCCCN)C(N)=O.Cl.Cl [pralmorelin dihydrochloride] (H-[dA][d2Nal]AW[dF]K-NH2)', 10.2);

* * *

- experimental details: In vivo absorption after intranasal administration to rats (plasma concentration, two-antibody competition method)
- assay setup: male, Crj:CD (SD), rat, inhaled or intranasal, 50 ug/kg, intranasal 50 μg/kg, 0.4 w/v % solution in 2.5 w/v % D-mannitol (osmolarity ratio 0.5)
Where a SMILES comes first, the peptide text is derived from it. [ ]: non-standard residue; d: D form. d2Nal = N[C@H](Cc1ccc2ccccc2c1)C(=O)O
measurement kind: Cmax (ng/mL)

INSERT INTO measurements (molecule, reported) VALUES
  ('C[C@H](NC(=O)[C@@H](Cc1ccc2ccccc2c1)NC(=O)[C@@H](C)N)C(=O)N[C@@H](Cc1c[nH]c2ccccc12)C(=O)N[C@H](Cc1ccccc1)C(=O)N[C@@H](CCCCN)C(N)=O.Cl.Cl [pralmorelin dihydrochloride] (H-[dA][d2Nal]AW[dF]K-NH2)', 55.8);

* * *

- experimental details: In vivo absorption after intranasal administration to rats (plasma concentration, two-antibody competition method)
- assay setup: male, Crj:CD (SD), rat, inhaled or intranasal, 50 ug/kg, intranasal 50 μg/kg, 0.4 w/v % solution in 10 w/v % D-mannitol (osmolarity ratio 2)
- Experimental: With an isotonic solution (in distilled water) of 5 w/v % D-mannitol or physiological saline used as a solvent, a solution of 0.1 w/v % pralmorelin dihydrochloride was prepared and administered to male rats (7-week old, Crj:CD (SD) strain, N=3) in an amount of 50 μg/kg. […] The concentration of an unchanged substance in plasma was measured in accordance with the two-antibody competition method of Kitagawa et al. summarized below [J. Assoc. […]
Where a SMILES comes first, the peptide text is derived from it. [ ]: non-standard residue; d: D form. d2Nal = N[C@H](Cc1ccc2ccccc2c1)C(=O)O
measurement kind: Cmax (ng/mL)

INSERT INTO assay_data (compound, reported) VALUES
  ('C[C@H](NC(=O)[C@@H](Cc1ccc2ccccc2c1)NC(=O)[C@@H](C)N)C(=O)N[C@@H](Cc1c[nH]c2ccccc12)C(=O)N[C@H](Cc1ccccc1)C(=O)N[C@@H](CCCCN)C(N)=O.Cl.Cl [pralmorelin dihydrochloride] (H-[dA][d2Nal]AW[dF]K-NH2)', 21.7);

* * *

- experimental details: In vivo absorption after intranasal administration to rats (plasma concentration, two-antibody competition method)
- assay setup: male, Crj:CD (SD), rat, inhaled or intranasal, 0.3 mg/kg, intranasal 0.3 mg/kg, 0.3 w/v % in aqueous 0.005 w/v % benzalkonium chloride, 0.1 ml/kg
Where a SMILES comes first, the peptide text is derived from it. [ ]: non-standard residue; d: D form. d2Nal = N[C@H](Cc1ccc2ccccc2c1)C(=O)O
measurement kind: AUC (ng·h/mL)

INSERT INTO measurements (molecule, measurement_unit, reported) VALUES
  ('C[C@H](NC(=O)[C@@H](Cc1ccc2ccccc2c1)NC(=O)[C@@H](C)N)C(=O)N[C@@H](Cc1c[nH]c2ccccc12)C(=O)N[C@H](Cc1ccccc1)C(=O)N[C@@H](CCCCN)C(N)=O.Cl.Cl [pralmorelin dihydrochloride] (H-[dA][d2Nal]AW[dF]K-NH2)', 'ng·h/mL', 48.1);

* * *

- experimental details: In vivo absorption after intranasal administration to rats (plasma concentration, two-antibody competition method)
- assay setup: male, Crj:CD (SD), rat, inhaled or intranasal, 50 ug/kg, intranasal 50 μg/kg, 0.4 w/v % solution in 10 w/v % D-mannitol (osmolarity ratio 2)
Where a SMILES comes first, the peptide text is derived from it. [ ]: non-standard residue; d: D form. d2Nal = N[C@H](Cc1ccc2ccccc2c1)C(=O)O
measurement kind: bioavailability (%)

INSERT INTO results (compound, reported) VALUES
  ('C[C@H](NC(=O)[C@@H](Cc1ccc2ccccc2c1)NC(=O)[C@@H](C)N)C(=O)N[C@@H](Cc1c[nH]c2ccccc12)C(=O)N[C@H](Cc1ccccc1)C(=O)N[C@@H](CCCCN)C(N)=O.Cl.Cl [pralmorelin dihydrochloride] (H-[dA][d2Nal]AW[dF]K-NH2)', 9);

* * *

- experimental details: In vivo absorption after intranasal administration to rats (plasma concentration, two-antibody competition method)
- assay setup: male, Crj:CD (SD), rat, inhaled or intranasal, 50 ug/kg, intranasal 50 μg/kg, 0.4 w/v % solution in distilled water
Where a SMILES comes first, the peptide text is derived from it. [ ]: non-standard residue; d: D form. d2Nal = N[C@H](Cc1ccc2ccccc2c1)C(=O)O
measurement kind: bioavailability (%)

INSERT INTO measurements (compound, measurement_kind, reported) VALUES
  ('C[C@H](NC(=O)[C@@H](Cc1ccc2ccccc2c1)NC(=O)[C@@H](C)N)C(=O)N[C@@H](Cc1c[nH]c2ccccc12)C(=O)N[C@H](Cc1ccccc1)C(=O)N[C@@H](CCCCN)C(N)=O.Cl.Cl [pralmorelin dihydrochloride] (H-[dA][d2Nal]AW[dF]K-NH2)', 'bioavailability', 26.2);

* * *

- experimental details: In vivo absorption after intranasal administration to rats (plasma concentration, two-antibody competition method)
- assay setup: male, Crj:CD (SD), rat, inhaled or intranasal, 50 ug/kg, intranasal 50 μg/kg, 0.4 w/v % solution in 5 w/v % D-mannitol (osmolarity ratio 1)
Where a SMILES comes first, the peptide text is derived from it. [ ]: non-standard residue; d: D form. d2Nal = N[C@H](Cc1ccc2ccccc2c1)C(=O)O
measurement kind: bioavailability (%)

INSERT INTO assay_data (compound, reported) VALUES
  ('C[C@H](NC(=O)[C@@H](Cc1ccc2ccccc2c1)NC(=O)[C@@H](C)N)C(=O)N[C@@H](Cc1c[nH]c2ccccc12)C(=O)N[C@H](Cc1ccccc1)C(=O)N[C@@H](CCCCN)C(N)=O.Cl.Cl [pralmorelin dihydrochloride] (H-[dA][d2Nal]AW[dF]K-NH2)', 19);
